Tested on: COR-L95 (Small Cell Lung Carcinoma)
test_name: combination Emax (second highest fraction inhibited in the dose matrix, 72 h); higher = more inhibition; extreme values may be limits of the assay
assay_endpoint: combination Emax
Number, no unit, nothing else.

Supply reported combination Emax belonging to this molecule: Cc1c2c(nn1C)CSCc1cc(n(C)n1)CSc1cc(c3ccccc3c1)OCCCc1c(C(=O)O)n(C)c3c-2c(Cl)ccc13 [AZD5991] + Cn1cnc2c(F)c(Nc3ccc(Br)cc3Cl)c(C(=O)NOCCO)cc21 [Selumetinib] (first compound max 1 µM, 7x7, partner max 3 µM) 0.306

Quickly give me recorded combination Emax for CCc1c2c(nc3ccc(O)cc13)-c1cc3c(c(=O)n1C2)COC(=O)[C@]3(O)CC [SN-38] + O=C(c1cc(Cc2n[nH]c(=O)c3ccccc23)ccc1F)N1CCN(C(=O)C2CC2)CC1 [Olaparib] (first compound max 0.3 µM, 7x7, partner max 10 µM) 0.85

Note down combination Emax recorded for COc1nnc2ccc(N3CCC(c4ccc(OCCN5CCN(C)C(=O)[C@H]5C)cc4)CC3)nn12 [AZD5153] + Cc1c2c(nn1C)CSCc1cc(n(C)n1)CSc1cc(c3ccccc3c1)OCCCc1c(C(=O)O)n(C)c3c-2c(Cl)ccc13 [AZD5991] (first compound max 1 µM, 7x7, partner max 1 µM) 0.371

# return recorded combination Emax for entry CN(C)CCCOc1ccc(-c2ccc3ncc4c(c3c2)n(C2CCOCC2)c(=O)n4C)cn1 [AZD0156] + C=CCn1c(=O)c2cnc(Nc3ccc(N4CCN(C)CC4)cc3)nc2n1-c1cccc(C(C)(C)O)n1 [AZD1775] (first compound max 1 µM, partner max 1 µM) 0.623

Specify reported combination Emax for the molecule shown: CS(=O)(=O)CCNCc1ccc(-c2ccc3ncnc(Nc4ccc(OCc5cccc(F)c5)c(Cl)c4)c3c2)o1 [Lapatinib] + NC1(c2ccc(-c3nc4ccn5c(=O)[nH]nc5c4cc3-c3ccccc3)cc2)CCC1 [MK-2206] (first compound max 10 µM, 7x7, partner max 10 µM) 0.904

Answer with the recorded combination Emax for the molecule listed here: CN(C)CCCOc1ccc(-c2ccc3ncc4c(c3c2)n(C2CCOCC2)c(=O)n4C)cn1 [AZD0156] + C[C@@H]1COCCN1C2=NC(=NC(=C2)C3(CC3)[S@](=N)(=O)C)C4=C5C=CNC5=NC=C4 [AZD6738] (first compound max 1 µM, 7x7, partner max 10 µM) 0.525

Look up and report measured combination Emax for this entry: Cc1cc2ncnn2cc1Nc1ncc2c(n1)n(C1CCOCC1)c(=O)n2C [AZD7648] + COc1cc([C@@H]2c3cc4c(cc3[C@@H](O[C@@H]3O[C@@H]5CO[C@@H](C)O[C@H]5[C@H](O)[C@H]3O)[C@H]3COC(=O)[C@H]23)OCO4)cc(OC)c1O [Etoposide] (first compound max 10 µM, 7x7, partner max 10 µM) 0.551
